tested on: Meloidogyne incognita; assay: Nematicidal activity against second-stage juveniles of Meloidogyne incognita (root-knot nematode) after 1 hr by inverted microscopic analysis; format: functional
quantity: EC100

>>> value_observed("O=Cc1ccc2ccccc2c1 [2-NAPHTHALDEHYDE]")
">75 mg/L"
>>> value_observed("COc1ccc(C=O)cc1OC [3,4-DIMETHOXYBENZALDEHYDE]")
">1000 mg/L"
>>> value_observed("O=Cc1ccccc1[N+](=O)[O-] [2-NITROBENZALDEHYDE]")
">200 mg/L"
>>> value_observed("CCOP(=O)(SC(C)CC)N1CCSC1=O (stereo not drawn) [FOSTHIAZATE]")
"3 mg/L"

Ask | Quote EC100 reported for O=Cc1cccc(O)c1 [3-HYDROXYBENZALDEHYDE] please.
Reply | >250 mg/L

Ask | Look up and report measured EC100 for this entry: O=Cc1cccc(C=O)c1 [ISOPHTHALIC DICARBOXALDEHYDE]
Reply | >100 mg/L

Ask | Look up and report measured EC100 for this entry: O=CCc1ccccc1 [PHENYLACETALDEHYDE]
Reply | 1000 mg/L

Ask | Please give the documented EC100 of CCCCCCCCCCCCCCCc1ccc(C=O)c(O)c1
Reply | >1000 mg/L

Ask | Respond only with EC100 recorded for O=Cc1cccc(C(=O)O)c1 [3-FORMYLBENZOIC ACID]
Reply | >1000 mg/L

###

Activity reference
Molecular target: Collagen (Meloidogyne javanica)
Sequence (whole entry): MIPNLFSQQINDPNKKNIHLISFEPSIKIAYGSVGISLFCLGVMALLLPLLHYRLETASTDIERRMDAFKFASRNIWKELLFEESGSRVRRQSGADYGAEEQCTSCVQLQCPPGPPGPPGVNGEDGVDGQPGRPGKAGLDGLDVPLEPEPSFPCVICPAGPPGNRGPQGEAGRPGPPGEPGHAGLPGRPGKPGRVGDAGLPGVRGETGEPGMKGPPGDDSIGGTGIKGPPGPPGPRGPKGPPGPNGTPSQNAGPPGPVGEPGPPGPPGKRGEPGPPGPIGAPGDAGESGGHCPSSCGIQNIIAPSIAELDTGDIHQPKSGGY
Experiment: Covalent binding to Meloidogyne javanica (root-knot nematode) collagen 3 assessed as compound-protein adduct formation at 5 mM by HPLC-ESI-MS analysis
Note: unit % is implicit; provide only the numeric part.

Take a look at these entries with their results.
>>> value_observed("O=Cc1ccccc1O [SALICYLADEHYDE]")
57
>>> value_observed("O=Cc1cccc(C=O)c1 [ISOPHTHALIC DICARBOXALDEHYDE]")
0
>>> value_observed("O=Cc1ccc(O)c(O)c1 [PROTOCATECHUALDEHYDE]")
89
>>> value_observed("O=Cc1ccccc1 [BENZALDEHYDE]")
0
>>> value_observed("O=Cc1ccc2c(c1)OCO2 [PIPERONAL]")
30

Ask | Hello, please tell me recorded Activity for this one: COc1ccccc1C=O [2-METHOXYBENZALDEHYDE]
Reply | 77

Ask | For COc1ccc(C=O)cc1OC [3,4-DIMETHOXYBENZALDEHYDE] , write its Activity.
Reply | 70

###

target: UniProt O01945; assay: Covalent binding to Meloidogyne javanica (root-knot nematode) collagen 3 assessed as compound-protein adduct formation at 1 mM by HPLC-ESI-MS analysis
quantity: Activity (%)
Numbers only; they are read as %.

Here's what some known entries look like.
>>> value_observed("O=Cc1ccccc1")
0
>>> value_observed("O=Cc1ccc2c(c1)OCO2")
5
>>> value_observed("COc1ccccc1C=O")
74
>>> value_observed("COc1ccc(C=O)cc1OC")
65
>>> value_observed("O=Cc1ccc(O)c(O)c1")
72
>>> value_observed("O=Cc1ccccc1O")
61

For the next question, use this compound.
Ask | Please supply the value of reported Activity for the item O=Cc1cccc(C=O)c1
Reply | 1

###

tested on: Meloidogyne incognita; assay: Nematicidal activity against second-stage juveniles of Meloidogyne incognita (root-knot nematode) after 1 hr by inverted microscopic analysis; assay type: functional
quantity: EC100

Worked set:
>>> value_observed("CCCCC/C=C/C=C/C=O")
">20 mg/L"
>>> value_observed("COc1ccccc1C=O [2-METHOXYBENZALDEHYDE]")
">1000 mg/L"
>>> value_observed("O=Cc1ccc(O)cc1 [4-HYDROXYBENZALDEHYDE]")
"500 mg/L"
>>> value_observed("O=Cc1ccccc1O [SALICYLADEHYDE]")
">25 mg/L"
>>> value_observed("O=C(O)/C=C/c1ccccc1 [CINNAMIC ACID]")
">250 mg/L"

Ask | Supply EC100 value. Item: O=Cc1ccc2c(c1)OCO2 [PIPERONAL]
Reply | >100 mg/L

Ask | Complete the entry with EC100 for Cn1c2cccc(=O)c-2nc2ccccc21 [PYOCYANIN]
Reply | >250 mg/L

###

system: Meloidogyne incognita; assay: Nematicidal activity against second-stage juveniles of Meloidogyne incognita (root-knot nematode) after 1 hr by inverted microscopic analysis; format: functional
We begin with a simple list: items and their reported EC100.

Example results:
>>> value_observed("CC(C)=CCC/C(C)=C/C=O")
">250 mg/L"
>>> value_observed("O=Cc1ccco1")
"11 mg/L"
>>> value_observed("COc1cc(C=O)ccc1O")
">1000 mg/L"
>>> value_observed("O=Cc1ccc(O)c(O)c1")
">1000 mg/L"
>>> value_observed("Oc1ccccc1O")
">500 mg/L"
>>> value_observed("O=Cc1ccccc1O[C@@H]1O[C@H](CO)[C@@H](O)[C@H](O)[C@H]1O")
">250 mg/L"
>>> value_observed("CC(=O)c1ccc2c(c1)OCO2")
">500 mg/L"
>>> value_observed("COC(=O)c1ccccc1O [METHYL SALICYLATE]")
">1000 mg/L"
>>> value_observed("c1ccc([C@H]2CN3CCSC3=N2)cc1")
">20 mg/L"
>>> value_observed("O=Cc1ccccc1")
">100 mg/L"

Ask | Give EC100 for the following molecule: C[C@@H]1O[C@@H](O[C@H]2C[C@@H](O)[C@]3(CO)[C@H]4[C@H](O)C[C@]5(C)[C@@H](C6=CC(=O)OC6)CC[C@]5(O)[C@@H]4CC[C@]3(O)C2)[C@H](O)[C@H](O)[C@H]1O
Reply | >1000 mg/L

Ask | Please give measured EC100 of the following entry: CCc1ccc(O)c(C=O)c1
Reply | >100 mg/L

Ask | Give the value of EC100 reported for the following: O=Cc1ccccc1C=O
Reply | >50 mg/L

Ask | Dear colleague, please send me the reported EC100 for O=C/C=C\c1ccccc1 when you can.
Reply | >250 mg/L

// data source = ChEMBL document CHEMBL3045766
